Origin of the recorded values: patent US20190338002A1

Target: T1, human alpha CGRP (SEQ ID NO: 80) (human, not fully specified)
T1 construct: also called human αCGRP; hαCGRP
T1 peptide: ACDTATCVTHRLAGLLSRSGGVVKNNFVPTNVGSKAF
Experiment: competition ELISA in solution; free mutein detected on plate-bound biotinylated CGRP
pIC50: recorded values
In simple prose, pIC50 is minus the logarithm base ten of a concentration in moles per litre.

Before answering, review these 4 worked examples.
# Binder, Numeric value
data = [
    ("lipocalin mutein SEQ ID NO: 5 (designed binder) QDSTSDLIPAPPLSKVPLQQNFQDNQFHGKWYVVGRAGNAELREDKDPEKMEATIYELKEDKSYNVTDVGFWQKKCIYVIHTFVPGSQPGEFTLGNIKSYPGTTSALVRVVSTNYNQHAMVFFKVVRQNREWFEITLYGRTKELTSELKENFIRFSKSLGLPENHIVFPVPIDQCIDGSAWSHPQFEK", 7.44),
    ("lipocalin mutein SEQ ID NO: 2 (designed binder) QDSTSDLIPAPPLSKVPLQQNFQDNQFHGKWYVVGEAGNWGLREDKDPKKMAATIYELKEDKSYNVTDVQFIEKKCDYWIGTFVPGSQPGEFTLGAIKSEPGQTSNLVRVVSTNYNQHAMVFFKEVWQNRELFWITLYGRTKELTSELKENFIRFSKSLGLPENHIVFPVPIDQCIDGSAWSHPQFEK", 7.26),
    ("lipocalin mutein SEQ ID NO: 4 (designed binder, biotinylated by NHS chemistry for capture in SPR) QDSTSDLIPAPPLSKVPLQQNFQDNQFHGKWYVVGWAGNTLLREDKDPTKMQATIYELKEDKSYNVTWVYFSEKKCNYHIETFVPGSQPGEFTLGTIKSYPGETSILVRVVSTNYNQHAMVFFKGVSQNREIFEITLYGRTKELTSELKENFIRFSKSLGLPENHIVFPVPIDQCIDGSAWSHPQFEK", 8.68),
    ("lipocalin mutein SEQ ID NO: 6 (designed binder) QDSTSDLIPAPPLSKVPLQQNFQDNQFHGKWYVVGIAGNWWLREDKDPLKMYATIYELKEDKSYNVTHVMFMTKKCDYTIRTFVPGSQPGEFTLGNIKSIPGMTSLLVRVVSTNYNQHAMVFFKFVWQNREWFHITLYGRTKELTSELKENFIRFSKSLGLPENHIVFPVPIDQCIDGSAWSHPQFEK", 8.51),
]

Turning now to a further binder:
Data point: lipocalin mutein SEQ ID NO: 3 (designed binder) QDSTSDLIPAPPLSKVPLQQNFQDNQFHGKWYVVGFAGNMWLREDKDPFKMGATIYELKEDKSYNVTWVWFEAKKCDYGINTFVPGSQPGEFTLGGIKSPPGMTSHLVRVVSTNYNQHAMVFFKEVFQNREWFWITLYGRTKELTSELKENFIRFSKSLGLPENHIVFPVPIDQCIDGSAWSHPQFEK ; pIC50 = 8.12
